List of binding signal values.
TARGET ENTITY: T1, RBFOX1 RRM (Homo sapiens, UniProt Q9NWB1 109-208)
T1 sequence: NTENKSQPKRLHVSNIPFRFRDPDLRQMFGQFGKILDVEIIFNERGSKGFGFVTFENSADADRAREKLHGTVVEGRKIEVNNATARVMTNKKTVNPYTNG
MEASUREMENT PROTOCOL: EMSA; HiTS-Eq, 1 nM pool, 10 min; buffer printed only for the single-RNA assays: 10 mM Tris pH 7.5, 150 mM NaCl, 3.4 mM EDTA, 0.001% NP-40, 30 C
TEST CONTEXT: tags: His6 N-terminal (pET28a); label: 5' 32P
In all, about 16,000 sequences were measured (“ka relative to ugcaugu”: median about 0.0091, highest 2% from about 0.032 on). Only a selection was taken, and the highest values are over-represented in it overall.

QUERY: Record request: binding signal value, item UUAGAAU (DNA:RNA) RNA: GGGAGACCGGAAUUCAGAUUGUCCUUAGAAUUUAAAUCCCGUCGUAGCCACCA DNA 1: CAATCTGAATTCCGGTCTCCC DNA 2: TGGTGGCTACGACGGGATT
RESULT: 0.00773 KA relative to UGCAUGU

QUERY: Please give the result for GACUAUG (DNA:RNA) RNA: GGGAGACCGGAAUUCAGAUUGUCCGACUAUGUUAAAUCCCGUCGUAGCCACCA DNA 1: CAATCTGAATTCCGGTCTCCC DNA 2: TGGTGGCTACGACGGGATT too.
RESULT: 0.0187 KA relative to UGCAUGU

QUERY: Please give the result for UGCUCCG (DNA:RNA) RNA: GGGAGACCGGAAUUCAGAUUGUCCUGCUCCGUUAAAUCCCGUCGUAGCCACCA DNA 1: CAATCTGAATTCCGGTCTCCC DNA 2: TGGTGGCTACGACGGGATT too.
RESULT: 0.0132 KA relative to UGCAUGU

Further cases:
QUERY: Record request: binding signal value, item CAACCGU (DNA:RNA) RNA: GGGAGACCGGAAUUCAGAUUGUCCCAACCGUUUAAAUCCCGUCGUAGCCACCA DNA 1: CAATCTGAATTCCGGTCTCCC DNA 2: TGGTGGCTACGACGGGATT
RESULT: 0.00135 KA relative to UGCAUGU
